Values from BigSolDB 2.1

details: in ethyl acetate, 288.15 K
Attribute Measured: solubility (mole fraction)

Tell me solubility (mole fraction) reported for NC(=O)c1cnccn1 0.0024

----------
settings: in methanol, 293.15 K
Attribute Measured: solubility (mole fraction)
Reply: number alone, nothing else.

Tell me solubility (mole fraction) reported for NC(=O)c1cnccn1 0.00384

----------
conditions: in n-butanol, 308.15 K
Attribute Measured: solubility (mole fraction)
Reply: number alone, nothing else.

Tell me solubility (mole fraction) reported for NC(=O)c1cnccn1 0.00396

----------
settings: in n-propanol, 278.15 K
Attribute Measured: solubility (mole fraction)
Reply: number alone, nothing else.

Tell me solubility (mole fraction) reported for NC(=O)c1cnccn1 0.000775

----------
settings: in methanol, 308.15 K
Attribute Measured: solubility (mole fraction)
Reply: number alone, nothing else.

Tell me solubility (mole fraction) reported for NC(=O)c1cnccn1 0.0071

----------
conditions: in water, 298.15 K
Attribute Measured: solubility (mole fraction)
Reply: number alone, nothing else.

Tell me solubility (mole fraction) reported for NC(=O)c1cnccn1 0.0024

----------
conditions: in n-butanol, 318.15 K
Attribute Measured: solubility (mole fraction)
Reply: number alone, nothing else.

Tell me solubility (mole fraction) reported for NC(=O)c1cnccn1 0.00623

----------
conditions: in isopropanol, 278.15 K
Attribute Measured: solubility (mole fraction)
Reply: number alone, nothing else.

Tell me solubility (mole fraction) reported for NC(=O)c1cnccn1 0.000619

----------
settings: in n-butanol, 303.15 K
Attribute Measured: solubility (mole fraction)

Tell me solubility (mole fraction) reported for NC(=O)c1cnccn1 0.00309

----------
details: in methanol, 283.15 K
Attribute Measured: solubility (mole fraction)
Reply: number alone, nothing else.

Tell me solubility (mole fraction) reported for NC(=O)c1cnccn1 0.00265

----------
settings: in ethyl acetate, 303.15 K
Attribute Measured: solubility (mole fraction)
Reply: number alone, nothing else.

Tell me solubility (mole fraction) reported for NC(=O)c1cnccn1 0.00416

----------
conditions: in acetonitrile, 298.15 K
Attribute Measured: solubility (mole fraction)

Tell me solubility (mole fraction) reported for NC(=O)c1cnccn1 0.00294

----------
settings: in ethyl acetate, 293.15 K
Attribute Measured: solubility (mole fraction)
Reply: number alone, nothing else.

Tell me solubility (mole fraction) reported for NC(=O)c1cnccn1 0.00312

----------
details: in methanol, 313.15 K
Attribute Measured: solubility (mole fraction)
Reply: number alone, nothing else.

Tell me solubility (mole fraction) reported for NC(=O)c1cnccn1 0.00828

----------
conditions: in n-propanol, 308.15 K
Attribute Measured: solubility (mole fraction)
Reply: number alone, nothing else.

Tell me solubility (mole fraction) reported for NC(=O)c1cnccn1 0.00394

----------
settings: in isopropanol, 298.15 K
Attribute Measured: solubility (mole fraction)
Reply: number alone, nothing else.

Tell me solubility (mole fraction) reported for NC(=O)c1cnccn1 0.00224

----------
conditions: in isopropanol, 318.15 K
Attribute Measured: solubility (mole fraction)
Reply: number alone, nothing else.

Tell me solubility (mole fraction) reported for NC(=O)c1cnccn1 0.00574

----------
conditions: in sec-butanol, 313.15 K
Attribute Measured: solubility (mole fraction)
Reply: number alone, nothing else.

Tell me solubility (mole fraction) reported for NC(=O)c1cnccn1 0.00434

----------
settings: in n-butanol, 323.15 K
Attribute Measured: solubility (mole fraction)
Reply: number alone, nothing else.

Tell me solubility (mole fraction) reported for NC(=O)c1cnccn1 0.00731

----------
conditions: in acetone, 313.15 K
Attribute Measured: solubility (mole fraction)
Reply: number alone, nothing else.

Tell me solubility (mole fraction) reported for NC(=O)c1cnccn1 0.00784

----------
details: in methanol, 278.15 K
Attribute Measured: solubility (mole fraction)
Reply: number alone, nothing else.

Tell me solubility (mole fraction) reported for NC(=O)c1cnccn1 0.00208

----------
conditions: in water, 313.15 K
Attribute Measured: solubility (mole fraction)
Reply: number alone, nothing else.

Tell me solubility (mole fraction) reported for NC(=O)c1cnccn1 0.00421

----------
details: in n-butanol, 288.15 K
Attribute Measured: solubility (mole fraction)
Reply: number alone, nothing else.

Tell me solubility (mole fraction) reported for NC(=O)c1cnccn1 0.00148

----------
conditions: in n-propanol, 298.15 K
Attribute Measured: solubility (mole fraction)

Tell me solubility (mole fraction) reported for NC(=O)c1cnccn1 0.00245

----------
conditions: in ethyl acetate, 323.15 K
Attribute Measured: solubility (mole fraction)
Reply: number alone, nothing else.

Tell me solubility (mole fraction) reported for NC(=O)c1cnccn1 0.00775

----------
settings: in sec-butanol, 308.15 K
Attribute Measured: solubility (mole fraction)
Reply: number alone, nothing else.

Tell me solubility (mole fraction) reported for NC(=O)c1cnccn1 0.00332

----------
conditions: in ethyl acetate, 278.15 K
Attribute Measured: solubility (mole fraction)
Reply: number alone, nothing else.

Tell me solubility (mole fraction) reported for NC(=O)c1cnccn1 0.0016

----------
conditions: in water, 283.15 K
Attribute Measured: solubility (mole fraction)
Reply: number alone, nothing else.

Tell me solubility (mole fraction) reported for NC(=O)c1cnccn1 0.00131

----------
conditions: in acetone, 303.15 K
Attribute Measured: solubility (mole fraction)

Tell me solubility (mole fraction) reported for NC(=O)c1cnccn1 0.00574

----------
settings: in water, 288.15 K
Attribute Measured: solubility (mole fraction)
Reply: number alone, nothing else.

Tell me solubility (mole fraction) reported for NC(=O)c1cnccn1 0.00168

----------
conditions: in water, 303.15 K
Attribute Measured: solubility (mole fraction)
Reply: number alone, nothing else.

Tell me solubility (mole fraction) reported for NC(=O)c1cnccn1 0.00284
